# System: HEK293
# protocol.text: cytotoxicity IC50 (ATP content, uninfected cells); higher = less cytotoxic
# assay.context: infection: none

- compound.structure.string: "CC(C)C[C@H](NC(=O)[C@H](CCc1ccccc1)NC(=O)CN1CCOCC1)C(=O)N[C@@H](Cc1ccccc1)C(=O)N[C@@H](CC(C)C)C(=O)[C@@]1(C)CO1"
  target.system: "HEK293"
  value.qualifier: "="
  cytotoxicity IC50 [µM]: 0.32
- compound.structure.string: "CC1=C(O)C(=O)C=C2C1=CC=C1[C@@]2(C)CC[C@@]2(C)[C@@H]3C[C@](C)(C(=O)O)CC[C@]3(C)CC[C@]12C"
  target.system: "HEK293"
  value.qualifier: "="
  cytotoxicity IC50 [µM]: 2.2
- compound.structure.string: "COc1cc([C@@H]2c3cc4c(cc3[C@@H](O[C@@H]3O[C@@H]5CO[C@@H](C)O[C@H]5[C@H](O)[C@H]3O)[C@H]3COC(=O)[C@H]23)OCO4)cc(OC)c1O"
  target.system: "HEK293"
  value.qualifier: ">"
  cytotoxicity IC50 [µM]: 100
- compound.structure.string: "CCc1nc(N)nc(N)c1-c1ccc(Cl)cc1"
  target.system: "HEK293"
  value.qualifier: "="
  cytotoxicity IC50 [µM]: 14
- compound.structure.string: "CC[C@@]1(O)C(=O)OCc2c1cc1n(c2=O)Cc2cc3cc(O)ccc3nc2-1"
  target.system: "HEK293"
  value.qualifier: ">"
  cytotoxicity IC50 [µM]: 100
- compound.structure.string: "Cc1ncc(-c2ccnc(Nc3ccc(S(C)(=O)=O)cc3)n2)n1C(C)C"
  target.system: "HEK293"
  value.qualifier: ">"
  cytotoxicity IC50 [µM]: 100
- compound.structure.string: "OC[C@H](Cc1ccccc1)Nc1nc(Oc2ccc3c(c2)CCC3)nc2c1ncn2Cc1ccc(-c2ccccc2)cc1"
  target.system: "HEK293"
  value.qualifier: "="
  cytotoxicity IC50 [µM]: 90
- compound.structure.string: "CCN(CC)CCNC(=O)c1ccc2nc(-c3ccccc3)c(-c3ccc(CN4CCC(n5c(=O)[nH]c6ccccc65)CC4)cc3)nc2c1"
  target.system: "HEK293"
  value.qualifier: ">"
  cytotoxicity IC50 [µM]: 100
- compound.structure.string: "CCCCCC[C@H]1C(=O)O[C@H](C)[C@H](NC(=O)c2cccc(NC=O)c2O)C(=O)O[C@@H](C)[C@@H]1OC(=O)CC(C)C"
  target.system: "HEK293"
  value.qualifier: "="
  cytotoxicity IC50 [µM]: 0.0055
- compound.structure.string: "N=C(N)NN=C(/C=C/c1ccc([N+](=O)[O-])o1)/C=C/c1ccc([N+](=O)[O-])o1"
  target.system: "HEK293"
  value.qualifier: "="
  cytotoxicity IC50 [µM]: 3.9

---

This listing pairs compounds with measured IC50.
# Tested on: HEK293
# protocol.text: IC50 for inhibition of ZIKV NS1 production

- compound.structure.string: "Cc1ccc([N+](=O)[O-])cc1S(=O)(=O)N(C)/N=C/c1cnc2ccc(Br)cn12"
  IC50: "620 nM"
- compound.structure.string: "CCC[C@H](Nc1nc(-c2ccc(NC(=O)NCC)c(OC)c2)ncc1C)c1cccnc1"
  IC50: "170 nM"
- compound.structure.string: "CCC[C@@H](C=O)NC(=O)[C@H](CC(C)C)NC(=O)[C@H](CC(C)C)NC(=O)OCc1ccccc1"
  IC50: "1600 nM"
- compound.structure.string: "CC(C)C[C@H](NC(=O)[C@H](CCc1ccccc1)NC(=O)CN1CCOCC1)C(=O)N[C@@H](Cc1ccccc1)C(=O)N[C@@H](CC(C)C)C(=O)[C@@]1(C)CO1"
  IC50: "160 nM"
